Reported viability, T/C values for the following compounds.
Test system: 454973-116-R2-J3-PDC complex spheroid viability;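 note: spheroids exposed to drugs for seven days before measurement; percent viability relative to DMSO vehicle control wells taken as 100%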
Test: Anticancer human tumor 454973-116-R2-J3-PDC patient-derived pancreatic carcinoma cell line growth inhibition [POLQ]
Conditions: second compound 3.16 µM; first compound 3.16 µM; hits give low values

Use these answered entries as a reference point.
>>> experimental_value("CNCc1ccc(-c2[nH]c3cc(F)cc4c3c2CCNC4=O)cc1 + Nc1ccc(C#CCN(C(=O)Cc2ncc(C(F)(F)F)cc2C(F)(F)F)c2ccc(F)cc2)nn1")
"121%"
>>> experimental_value("C#Cc1c(F)ccc2cc(O)cc(-c3ncc4c(N5CC6CCC(C5)N6)nc(OCC56CCCN5CC(F)C6)nc4c3F)c12 (stereo not drawn) + COC1C(OC(N)=O)C(O)C(Oc2ccc3c(O)c(NC(=O)c4ccc(O)c(CC=C(C)C)c4)c(=O)oc3c2C)OC1(C)C")
"32.9%"

// switching to the query compound
query: # lookup: viability, T/C of Nc1ccn(C2OC(CO)C(O)C2(F)F)c(=O)n1 (stereo not drawn) + Cc1cccc(N(C)C(=O)C2C(O)CCN2c2nc(C)cc(C(F)(F)F)c2C#N)c1
result: 12.5%

Data origin, for the record: PubChem BioAssay AID1963846
